target: Dual specificity mitogen-activated protein kinase kinase 6 (Homo sapiens, UniProt P52564); further: in the data inactive means no Kd found up to 30 µM
Sequence (P52564 whole entry): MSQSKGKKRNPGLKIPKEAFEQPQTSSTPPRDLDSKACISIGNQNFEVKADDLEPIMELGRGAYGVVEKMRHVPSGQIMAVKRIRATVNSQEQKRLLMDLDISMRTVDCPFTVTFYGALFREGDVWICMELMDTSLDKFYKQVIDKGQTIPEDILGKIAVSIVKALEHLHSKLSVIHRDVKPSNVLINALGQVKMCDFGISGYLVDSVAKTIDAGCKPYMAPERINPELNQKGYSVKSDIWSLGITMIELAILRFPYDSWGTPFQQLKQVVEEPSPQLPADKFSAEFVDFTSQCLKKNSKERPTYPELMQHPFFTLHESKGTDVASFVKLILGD
Active and inactive are the calls of the source.
attribute_measured: Kd

Consider the reported Kd for these molecules:
>>> observed_measurement("CNC(=O)c1cc(Oc2ccc(NC(=O)Nc3ccc(Cl)c(C(F)(F)F)c3)c(F)c2)ccn1")
"> 30 µM (inactive)"
>>> observed_measurement("O=c1sn(-c2cccc3ccccc23)c(=O)n1Cc1ccccc1")
"> 30 µM (inactive)"
>>> observed_measurement("CN1N=C(N)c2cn([C@@H]3O[C@H](COP(=O)(O)O)[C@@H](O)[C@H]3O)c3ncnc1c23 [TRICIRIBINE PHOSPHATE]")
"> 30 µM (inactive)"
>>> observed_measurement("CCN1CCN(Cc2ccc(-c3cc4c(N[C@H](C)c5ccccc5)ncnc4[nH]3)cc2)CC1")
"> 30 µM (inactive)"
>>> observed_measurement("O=C1NC(=O)/C(=C/c2ccc3nccc(-c4ccncc4)c3c2)S1")
"> 30 µM (inactive)"
>>> observed_measurement("COc1cc(N2CCC(N3CCN(C)CC3)CC2)ccc1Nc1ncnc(Nc2ccccc2S(=O)(=O)C(C)C)n1")
"> 30 µM (inactive)"

Tested on Dual specificity mitogen-activated protein kinase kinase 6 (Homo sapiens, UniProt P52564), the item CCS(=O)(=O)N1CC(CC#N)(n2cc(-c3ncnc4[nH]ccc34)cn2)C1 showed Kd equal to > 30 µM (inactive)

Readout Kd for COc1cc2nccc(Oc3ccc(NC(=O)NC4CC4)c(Cl)c3)c2cc1C(N)=O , test system Dual specificity mitogen-activated protein kinase kinase 6 (Homo sapiens, UniProt P52564), was > 30 µM (inactive)

Value sought: Kd, system Dual specificity mitogen-activated protein kinase kinase 6 (Homo sapiens, UniProt P52564), item Cc1nc(N)sc1-c1ccnc(Nc2ccc(N3CCOCC3)cc2)n1 . Result: > 30 µM (inactive)

Value (Kd, Dual specificity mitogen-activated protein kinase kinase 6 (Homo sapiens, UniProt P52564)) for record COc1cc(CCc2cc(NC(=O)c3ccc(N4C[C@@H](C)N[C@@H](C)C4)cc3)n[nH]2)cc(OC)c1 = > 30 µM (inactive)

Per the reported Dual specificity mitogen-activated protein kinase kinase 6 (Homo sapiens, UniProt P52564) data, Cn1cc(-c2ccc(F)c(C(F)(F)F)c2)nc1C1CCN(c2ncnc3[nH]ncc23)CC1 has Kd of > 30 µM (inactive)

Item CN1CCC(CNc2ccc3ncc(-c4cccc(OC(F)(F)F)c4)n3n2)CC1 was tested on Dual specificity mitogen-activated protein kinase kinase 6 (Homo sapiens, UniProt P52564); the reported Kd is > 30 µM (inactive)

###

target: Serine/threonine-protein kinase N1 (Homo sapiens); further: in the data inactive means no Kd found up to 30 µM
Sequence (Q16512 whole entry): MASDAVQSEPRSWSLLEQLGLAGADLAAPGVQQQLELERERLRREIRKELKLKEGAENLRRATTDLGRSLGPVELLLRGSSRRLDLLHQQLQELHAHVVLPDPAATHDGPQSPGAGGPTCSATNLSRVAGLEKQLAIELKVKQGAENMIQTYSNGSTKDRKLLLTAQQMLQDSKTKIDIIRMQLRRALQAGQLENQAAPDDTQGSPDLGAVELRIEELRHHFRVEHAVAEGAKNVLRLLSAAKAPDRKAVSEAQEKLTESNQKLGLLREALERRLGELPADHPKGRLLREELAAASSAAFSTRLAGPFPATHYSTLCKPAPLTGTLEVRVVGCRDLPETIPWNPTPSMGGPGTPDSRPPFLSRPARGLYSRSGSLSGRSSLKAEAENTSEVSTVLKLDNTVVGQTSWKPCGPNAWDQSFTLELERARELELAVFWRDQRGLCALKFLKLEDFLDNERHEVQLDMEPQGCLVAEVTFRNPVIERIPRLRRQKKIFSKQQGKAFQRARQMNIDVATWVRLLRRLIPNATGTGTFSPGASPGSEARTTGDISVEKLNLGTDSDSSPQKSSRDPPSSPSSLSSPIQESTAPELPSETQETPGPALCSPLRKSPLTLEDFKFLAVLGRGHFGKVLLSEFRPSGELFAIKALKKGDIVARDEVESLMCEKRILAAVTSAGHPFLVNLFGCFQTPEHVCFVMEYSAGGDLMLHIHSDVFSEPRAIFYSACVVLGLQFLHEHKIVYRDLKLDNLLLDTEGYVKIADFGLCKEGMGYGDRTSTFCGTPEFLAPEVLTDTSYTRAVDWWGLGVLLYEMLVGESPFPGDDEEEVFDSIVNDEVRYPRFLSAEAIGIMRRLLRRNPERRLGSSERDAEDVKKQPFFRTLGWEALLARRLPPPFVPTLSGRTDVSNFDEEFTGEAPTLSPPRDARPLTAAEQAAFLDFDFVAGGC
Active and inactive are the calls of the source.
# Kd per entry

Serine/threonine-protein kinase N1 (Homo sapiens) Kd of CC[C@H](Nc1ncnc2[nH]cnc12)c1nc2cccc(F)c2c(=O)n1-c1ccccc1 is > 30 µM (inactive)

Value (Kd, Serine/threonine-protein kinase N1 (Homo sapiens)) for record Cc1c(F)cc(C(=O)NC2CC2)cc1-c1ccc(C(=O)NCC(C)(C)C)cn1 = > 30 µM (inactive)

Measured Kd for this entry COCCNCc1ccc(-c2cc3nccc(Oc4ccc(NC(=S)NC(=O)Cc5ccc(F)cc5)cc4F)c3s2)nc1 on Serine/threonine-protein kinase N1 (Homo sapiens): > 30 µM (inactive)

###

biological target: Calcium/calmodulin-dependent protein kinase type II subunit delta (Homo sapiens, UniProt Q13557); further: in the data inactive means no Kd found up to 30 µM
Sequence (Q13557 whole entry): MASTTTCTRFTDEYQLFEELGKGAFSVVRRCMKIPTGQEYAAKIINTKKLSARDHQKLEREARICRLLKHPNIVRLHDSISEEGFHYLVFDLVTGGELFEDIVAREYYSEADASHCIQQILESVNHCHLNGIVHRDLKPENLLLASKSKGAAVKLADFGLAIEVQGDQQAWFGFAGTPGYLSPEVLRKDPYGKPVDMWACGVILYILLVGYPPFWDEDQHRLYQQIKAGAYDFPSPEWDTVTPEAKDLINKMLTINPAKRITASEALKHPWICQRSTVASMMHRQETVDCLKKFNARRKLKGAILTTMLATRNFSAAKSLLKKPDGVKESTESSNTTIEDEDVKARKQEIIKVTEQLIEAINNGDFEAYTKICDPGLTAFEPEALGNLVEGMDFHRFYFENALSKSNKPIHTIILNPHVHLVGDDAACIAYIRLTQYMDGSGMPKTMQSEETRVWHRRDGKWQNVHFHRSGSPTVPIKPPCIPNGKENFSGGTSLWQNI
Active and inactive are the calls of the source.
Outcome field: choose from active, inactive

>>> category_label("Cn1cc(-c2ccc(F)c(C(F)(F)F)c2)nc1C1CCN(c2ncnc3[nH]ncc23)CC1")
"inactive"
>>> category_label("CC(C)Nc1cc(-c2c[nH]c(C(=O)N[C@H](CO)c3cccc(Cl)c3)c2)c(Cl)cn1")
"inactive"
>>> category_label("Cc1cc2c(F)c(Oc3ncnn4cc(OC[C@@H](C)OC(=O)[C@H](C)N)c(C)c34)ccc2[nH]1 [BRIVANIB ALANINATE]")
"inactive"
>>> category_label("CN1CCC(COc2cnc(-c3cccc(Cn4nc(-c5cccc(C#N)c5)ccc4=O)c3)nc2)CC1")
"inactive"
>>> category_label("CCn1c(=O)c(-c2cc[nH]n2)cc2c(C)nc(N)nc21")
"inactive"

Query string: What did the test return for CCCS(=O)(=O)Nc1ccc(F)c(C(=O)c2c[nH]c3ncc(-c4ccc(Cl)cc4)cc23)c1F ?
Result string: inactive

Query string: What did the test return for O=C(O)[C@]1(Cc2cccc(Nc3nccs3)n2)CC[C@@H](Oc2cccc(Cl)c2F)CC1 ?
Result string: inactive

###

Target: MAP/microtubule affinity-regulating kinase 4 (Homo sapiens, UniProt Q96L34); further: in the data inactive means no Kd found up to 30 µM
Sequence (Q96L34 whole entry): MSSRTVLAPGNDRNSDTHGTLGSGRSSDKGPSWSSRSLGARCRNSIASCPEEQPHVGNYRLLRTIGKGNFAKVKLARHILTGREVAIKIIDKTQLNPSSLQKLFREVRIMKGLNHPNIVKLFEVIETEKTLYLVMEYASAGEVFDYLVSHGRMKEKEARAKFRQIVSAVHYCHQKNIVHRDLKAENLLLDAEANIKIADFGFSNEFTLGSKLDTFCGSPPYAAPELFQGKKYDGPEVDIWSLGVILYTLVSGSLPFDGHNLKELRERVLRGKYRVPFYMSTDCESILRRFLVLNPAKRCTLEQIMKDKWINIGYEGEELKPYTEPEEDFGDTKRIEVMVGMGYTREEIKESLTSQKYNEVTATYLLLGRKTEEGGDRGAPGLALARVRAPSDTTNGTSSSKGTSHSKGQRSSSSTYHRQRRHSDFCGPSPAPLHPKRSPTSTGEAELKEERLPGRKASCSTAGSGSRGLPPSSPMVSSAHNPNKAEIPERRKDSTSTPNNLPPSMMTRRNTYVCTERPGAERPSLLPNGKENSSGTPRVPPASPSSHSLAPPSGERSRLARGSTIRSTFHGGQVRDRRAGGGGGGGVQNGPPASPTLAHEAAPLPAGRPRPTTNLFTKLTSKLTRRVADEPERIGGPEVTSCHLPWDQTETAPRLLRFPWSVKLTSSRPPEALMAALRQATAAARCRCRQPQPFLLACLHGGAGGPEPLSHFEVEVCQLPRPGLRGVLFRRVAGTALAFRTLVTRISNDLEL
Active and inactive are the calls of the source.
attribute_measured: Kd

>>> observed_measurement("Cn1ncc(Cl)c1-c1cc(C(=O)N[C@H](CN)Cc2cccc(F)c2)sc1Cl")
"> 30 µM (inactive)"
>>> observed_measurement("CNC(=O)c1ccc(-c2cnc3ncc(Cc4ccc5ncccc5c4)n3n2)cc1F")
"> 30 µM (inactive)"
>>> observed_measurement("Cc1ccc(S(=O)(=O)Nc2nc3ccccc3nc2Nc2ccc3nsnc3c2)cc1")
"> 30 µM (inactive)"
>>> observed_measurement("Cc1ccc(NC(=O)c2ccc(CN3CC[C@H](N(C)C)C3)c(C(F)(F)F)c2)cc1Nc1nccc(-c2cncnc2)n1")
"> 30 µM (inactive)"
>>> observed_measurement("COc1ccc(-c2ccc3c(N4CCOC[C@@H]4C)nc(N4CCOC[C@@H]4C)nc3n2)cc1CO")
"> 30 µM (inactive)"
>>> observed_measurement("O=C(Nc1ccc(-c2ccnc(Nc3ccc(N4CCOCC4)cc3)n2)cc1)C1CCCN1 (configuration not stated)")
"> 30 µM (inactive)"

Param item: CO[C@H]1C[C@@H]2CC[C@@H](C)[C@@](O)(O2)C(=O)C(=O)N2CCCC[C@H]2C(=O)O[C@H]([C@H](C)C[C@@H]2CC[C@@H](OCCO)[C@H](OC)C2)CC(=O)[C@H](C)/C=C(\C)[C@@H](O)[C@@H](OC)C(=O)[C@H](C)C[C@H](C)/C=C/C=C/C=C/1C ; param system: MAP/microtubule affinity-regulating kinase 4 (Homo sapiens, UniProt Q96L34); output Kd: > 30 µM (inactive)

###

molecular target: MAP kinase-activated protein kinase 2 (Homo sapiens, UniProt P49137); further: in the data inactive means no Kd found up to 30 µM
Sequence (P49137 whole entry): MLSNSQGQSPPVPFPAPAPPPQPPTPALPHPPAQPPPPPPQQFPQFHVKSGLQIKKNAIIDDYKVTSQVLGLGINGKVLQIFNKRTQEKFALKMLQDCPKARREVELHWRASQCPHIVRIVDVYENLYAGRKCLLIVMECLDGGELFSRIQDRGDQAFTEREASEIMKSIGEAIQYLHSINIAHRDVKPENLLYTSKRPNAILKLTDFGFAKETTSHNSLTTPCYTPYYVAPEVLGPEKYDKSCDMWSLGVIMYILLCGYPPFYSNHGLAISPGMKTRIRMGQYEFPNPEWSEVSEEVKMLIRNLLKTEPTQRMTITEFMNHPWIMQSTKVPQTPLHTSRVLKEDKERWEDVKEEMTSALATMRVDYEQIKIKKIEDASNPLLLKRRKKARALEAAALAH
Active and inactive are the calls of the source.
Would you mind answering with one of these outcomes? True = active, False = inactive

Query string: Check the results log: what was the call for CCN1CCN(Cc2ccc(-c3cc4c(N[C@H](C)c5ccccc5)ncnc4[nH]3)cc2)CC1 ?
Result string: False

Query string: Dear all, I need the recorded test outcome for C1=C/COCc2cc(ccc2OCCN2CCCC2)Nc2nccc(n2)-c2cccc(c2)COC/1 , thank you.
Result string: False

Query string: Tell me the recorded outcome of this test for CC(=O)Nc1cccc(-n2c(=O)n(C3CC3)c(=O)c3c(Nc4ccc(I)cc4F)n(C)c(=O)c(C)c32)c1 .
Result string: False

###

The source made the active and inactive calls.
Parameter Kd, tested on Mitogen-activated protein kinase 1 (Homo sapiens), listed per item. Further: in the data inactive means no Kd found up to 30 µM.
Sequence (P28482 whole entry): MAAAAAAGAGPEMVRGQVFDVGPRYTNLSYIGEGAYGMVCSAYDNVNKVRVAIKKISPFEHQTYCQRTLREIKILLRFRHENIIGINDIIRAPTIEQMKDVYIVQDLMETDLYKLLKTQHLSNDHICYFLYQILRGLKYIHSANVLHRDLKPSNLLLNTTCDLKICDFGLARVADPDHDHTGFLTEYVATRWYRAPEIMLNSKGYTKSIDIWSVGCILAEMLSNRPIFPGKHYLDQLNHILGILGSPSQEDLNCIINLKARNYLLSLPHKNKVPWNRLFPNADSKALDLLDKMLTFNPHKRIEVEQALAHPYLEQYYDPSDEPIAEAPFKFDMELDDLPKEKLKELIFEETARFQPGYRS

>>> observed_measurement("COCCNCc1ccc(-c2cc3nccc(Oc4ccc(NC(=S)NC(=O)Cc5ccc(F)cc5)cc4F)c3s2)nc1")
"> 30 µM (inactive)"
>>> observed_measurement("COc1cc(CCc2cc(NC(=O)c3ccc(N4C[C@@H](C)N[C@@H](C)C4)cc3)n[nH]2)cc(OC)c1")
"> 30 µM (inactive)"
>>> observed_measurement("CNS(=O)(=O)Nc1nccc(Cc2c(C)c3ccc(Oc4ncccn4)cc3oc2=O)c1F")
"> 30 µM (inactive)"

Could you now consider this next compound?
Assay Mitogen-activated protein kinase 1 (Homo sapiens), sample COc1cc2nccc(Oc3ccc(NC(=O)NC4CC4)c(Cl)c3)c2cc1C(N)=O , Kd read: > 30 µM (inactive)
